Data provenance is patent US4177287A.

experiment: in vivo; details: mouse, po, single application, 7-day, unfed white NMRI-mice, read-out: Toxicity LD50 p.o.
recorded-endpoint: LD50 at 168 h

Would you please look over these solved cases?
CN(CC(O)CNC(=O)c1ccccc1C(F)(F)F)c1ccc(Cl)cc1 (stereo not shown) = > 1470 mg/kg
CN(CC(O)CNC(=O)c1ccco1)c1ccc(Cl)cc1 (stereo not shown) = > 1470 mg/kg
CN(CC(O)CNC(=O)c1ccccc1F)c1ccc(Cl)cc1 (stereo not shown) = > 1470 mg/kg

Let us move to another entry and its LD50 at 168 h.
Input COc1ccc(C(=O)NCC(O)CN(C)c2ccc(Cl)cc2)cc1OC (stereo not shown) , output reported LD50 at 168 h.
> 6810 mg/kg
